Molecular target: T1, human GIP receptor (human, UniProt P48546 22-466)
T1 sequence (looked up): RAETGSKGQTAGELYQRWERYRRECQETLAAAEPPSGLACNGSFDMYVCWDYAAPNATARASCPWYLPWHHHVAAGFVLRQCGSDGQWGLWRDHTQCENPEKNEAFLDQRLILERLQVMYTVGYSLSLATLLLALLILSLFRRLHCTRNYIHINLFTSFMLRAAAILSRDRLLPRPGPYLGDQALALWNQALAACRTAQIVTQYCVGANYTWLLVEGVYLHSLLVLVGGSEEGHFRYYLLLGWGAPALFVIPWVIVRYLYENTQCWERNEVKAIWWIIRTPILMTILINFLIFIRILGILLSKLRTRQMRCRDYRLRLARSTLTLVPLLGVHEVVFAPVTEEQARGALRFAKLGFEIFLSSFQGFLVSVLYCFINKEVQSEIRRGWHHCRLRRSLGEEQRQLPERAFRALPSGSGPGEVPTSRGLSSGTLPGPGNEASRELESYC
Experiment: cell-based or functional assay
Ends that are not written are not given here. * marks the point of attachment. Myristoyl = CCCCCCCCCCCCCC(=O)*; Dodecyl = CCCCCCCCCCCC*
Reported cAMP agonism, nM (EC50) values for the following binders.
readout label: cAMP agonism, nM (EC50) (nM)

> print(dat)
                                     binder            readout.label  observed.measurement
1  Myristoyl-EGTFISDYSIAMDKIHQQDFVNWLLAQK-NH2 [AT110 [hGIP(3-30)NH2-C14/3]]  cAMP agonism, nM (EC50)                   3.6
2  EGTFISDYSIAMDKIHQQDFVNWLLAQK(Myristoyl)-NH2 [AT112 [hGIP(3-30)NH2-C14/30]]  cAMP agonism, nM (EC50)                  3950
3  EGTFISDYSIAMEKIAQQDFVNWLLAQK(Dodecyl)-NH2 [AT130 [hGIP(3-30)NH2[D15E; H18A]-C12/30]]  cAMP agonism, nM (EC50)                  8690
